- Subject of test: human adenosine A2B receptors (Homo sapiens, UniProt P29275)
- Construct: expressed in transfected cells
- Sequence (P29275 whole entry): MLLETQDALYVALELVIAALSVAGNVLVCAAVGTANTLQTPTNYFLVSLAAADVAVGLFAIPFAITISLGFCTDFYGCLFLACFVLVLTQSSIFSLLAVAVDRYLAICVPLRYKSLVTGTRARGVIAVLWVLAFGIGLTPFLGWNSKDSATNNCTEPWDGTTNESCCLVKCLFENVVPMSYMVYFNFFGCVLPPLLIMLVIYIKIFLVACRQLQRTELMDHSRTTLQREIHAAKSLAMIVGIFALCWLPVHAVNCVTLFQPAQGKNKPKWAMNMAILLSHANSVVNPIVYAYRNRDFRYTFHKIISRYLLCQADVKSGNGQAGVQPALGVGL
- Test protocol: FLIPR calcium flux assay in cells expressing human adenosine A2B receptors
- Assay type: cell-based
- Condition label: expressed human adenosine A2B receptors in mammalian cell lines, from dose response curves, read-out: Activity (IC50 activity range)
pIC50: −log10 of the molar value.
Quantity measured: pIC50

- Compound smiles: "COc1ccc(-c2cn(C)c3nc(NCc4cccnc4)nc(C(=O)c4cccs4)c23)cc1"
  Observed measurement: "< 6.30"
- Compound smiles: "Cn1cc(Br)c2c(C(=O)c3cccs3)nc(NCc3cccnc3)nc21"
  Observed measurement: "< 6.30"
- Compound smiles: "Cc1ccc(C(=O)c2nc(NCc3ccccn3)nc3c2ccn3C)s1"
  Observed measurement: "> 6.30"
- Compound smiles: "CCCn1ccc2c(C(=O)c3cccs3)nc(NCc3cccnc3)nc21"
  Observed measurement: "< 6.30"
- Compound smiles: "O=C(c1cccs1)c1nc(NCc2cccnc2)nc2c1ccn2CC1CC1"
  Observed measurement: "< 6.30"
- Compound smiles: "Cn1c(Cl)cc2c(C(=O)c3cccs3)nc(Cl)nc21"
  Observed measurement: "> 6.30"
- Compound smiles: "O=C(c1cccs1)c1nc(Cl)nc2[nH]ccc12"
  Observed measurement: "< 6.30"
- Compound smiles: "O=C(c1cccs1)c1nc(NCc2cccnc2)nc2c1ccn2Cc1ccccc1"
  Observed measurement: "< 6.30"
- Compound smiles: "Cn1c(Br)cc2c(C(=O)c3cccs3)nc(Cl)nc21"
  Observed measurement: "> 6.30"
